From: ChEMBL document CHEMBL4190238

test-system: Indoleamine 2,3-dioxygenase 1 (Homo sapiens, UniProt P14902)
Sequence (P14902 whole entry): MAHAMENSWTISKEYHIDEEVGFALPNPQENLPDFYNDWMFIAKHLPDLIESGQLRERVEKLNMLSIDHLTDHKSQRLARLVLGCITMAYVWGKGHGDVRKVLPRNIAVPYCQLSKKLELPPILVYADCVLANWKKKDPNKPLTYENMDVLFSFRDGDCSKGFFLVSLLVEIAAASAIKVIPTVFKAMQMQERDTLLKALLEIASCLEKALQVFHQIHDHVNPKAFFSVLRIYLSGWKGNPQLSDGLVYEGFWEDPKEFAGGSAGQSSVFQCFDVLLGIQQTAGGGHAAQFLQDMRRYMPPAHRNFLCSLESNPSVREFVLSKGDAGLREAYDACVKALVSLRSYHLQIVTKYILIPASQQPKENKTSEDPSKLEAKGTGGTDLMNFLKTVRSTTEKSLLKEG
assay-overview: Inhibition of IFNgamma-induced IDO1 in human HeLa cells using L-tryptophan as substrate after 24 hrs
parameter: IC50

O=c1oc2ccccc2n1CCc1ccccc1 | > 100 µM
O=c1oc2ccc(F)cc2n1Cc1cccc(F)c1 | 28.5 µM
O=c1oc2ccc(Cl)cc2n1CC(O)c1ccc(F)cc1 (stereo not given) | 10.2 µM
COc1cccc(CNC(=O)n2c(=O)oc3ccc(Cl)cc32)c1 | 14.6 µM

Let's switch to this compound now.
Prompt: Provide IC50 value for the following compound: O=c1oc2ccc(Cl)cc2n1CC(O)c1ccc(Cl)cc1 (stereo not given)
Response: 62.7 µM

###

test-system: Indoleamine 2,3-dioxygenase 1 (Homo sapiens)
assay-overview: Inhibition of IFNgamma-induced IDO1 in human HeLa cells using L-tryptophan as substrate after 24 hrs
Assay type: cell-based
parameter: pIC50
Notebook: values listed as pIC50 are -log10 of the concentration (mol/L).

COc1ccc(CNC(=O)n2c(=O)oc3ccccc32)cc1 | 4.50
O=C(Cn1c(=O)oc2ccccc21)c1cccc(Cl)c1 | 4.31
O=c1oc2ccc([N+](=O)[O-])cc2n1Cc1cccc(F)c1 | 4.00
O=c1oc2ccccc2n1Cc1ccc(Cl)cc1 | 4.46
O=C(c1ccccc1)n1c(=O)oc2ccccc21 | 4.04

Prompt: Provide pIC50 value for the following compound: O=c1oc2ccccc2n1CC(O)c1cccc(Cl)c1 (stereo unspecified)
Response: 4.09

Prompt: Provide pIC50 value for the following compound: O=c1oc2ccc(Cl)cc2n1CCc1ccccc1
Response: 4.75

Prompt: Provide pIC50 value for the following compound: O=c1oc2ccccc2n1Cc1cccc(F)c1
Response: 4.51

Prompt: Provide pIC50 value for the following compound: O=C(Cc1ccc(F)cc1)n1c(=O)oc2ccc(Cl)cc21
Response: 5.19

Prompt: Provide pIC50 value for the following compound: Nc1nc2ccccc2n1C(=O)Cc1ccc(F)cc1
Response: 4.64

###

test-system: Indoleamine 2,3-dioxygenase 1 (Homo sapiens, UniProt P14902)
assay-overview: Inhibition of IFNgamma-induced IDO1 in human HeLa cells using L-tryptophan as substrate after 24 hrs
The following molecules are shown together with reported pIC50 values.
Notebook: values listed as pIC50 are -log10 of the concentration (mol/L).

O=c1oc2ccccc2n1CC(O)c1ccc(Cl)cc1 (stereo unspecified) | 4.29
O=c1oc2ccc([N+](=O)[O-])cc2n1Cc1ccc(Cl)cc1 | 4.00
O=c1oc2ccc(Cl)cc2n1Cc1cccc(F)c1 | 5.01

Prompt: Provide pIC50 value for the following molecule: O=c1oc2ccc(Cl)cc2n1Cc1ccc(Cl)cc1
Response: 5.22

Prompt: Provide pIC50 value for the following molecule: O=c1oc2ccccc2n1CC(O)c1ccc(F)cc1 (stereo unspecified)
Response: 4.31

Prompt: Provide pIC50 value for the following molecule: O=C(Cn1c(=O)oc2ccccc21)c1ccc(Cl)cc1
Response: 4.41

###

test-system: UniProtKB P14902
assay-overview: Inhibition of IFNgamma-induced IDO1 in human HeLa cells using L-tryptophan as substrate after 24 hrs
parameter: IC50 (µM)
Field: numeric (µM). Do not append units.

O=C(Cn1c(=O)oc2ccccc21)c1ccc(F)cc1 | 53.1
O=c1oc2ccc(Cl)cc2n1CC(O)c1cccc(Cl)c1 (stereo not given) | 60.9
O=c1oc2ccc(F)cc2n1Cc1ccc(Cl)cc1 | 80.8
O=C(Cn1c(=O)oc2ccc(Cl)cc21)c1ccc(F)cc1 | 20.7
O=c1[nH]c2ccccc2n1CC(O)c1ccc(F)cc1 (stereo not given) | 99.9
O=C(Cn1c(=O)oc2ccc(Cl)cc21)c1ccc(Cl)cc1 | 24.9

Let's switch to this molecule now.
Prompt: Provide IC50 value for the following molecule: O=C(Cn1c(=O)oc2ccc(Cl)cc21)c1cccc(Cl)c1
Response: 76.6

###

The following molecules are shown together with reported IC50 values.
test-system: Indoleamine 2,3-dioxygenase 1 (Homo sapiens)
assay-overview: Inhibition of IFNgamma-induced IDO1 in human HeLa cells using L-tryptophan as substrate after 24 hrs
Assay type: cell-based

Check out these entries, answers already filled in.
Nc1ccc2oc(=O)n(Cc3cccc(F)c3)c2c1 | > 100 µM
COc1ccc(NC(=O)n2c(=O)oc3ccc(Cl)cc32)cc1 | > 100 µM

Let's switch to this molecule now.
Prompt: Provide IC50 value for the following molecule: O=C(Cc1ccc(F)cc1)n1c(=O)oc2ccccc21
Response: > 100 µM
